Listed below: log2 fold change of degron read counts values for each entry.
Target: T1, CRBN, Q96SW2;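 also: pooled lentiviral library of zinc finger degron-EGFP fusions in mCherry-positive Jurkat cells, FACS-sorted after compound exposure, with degron abundance counted by next-generation sequencing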
T1 chain: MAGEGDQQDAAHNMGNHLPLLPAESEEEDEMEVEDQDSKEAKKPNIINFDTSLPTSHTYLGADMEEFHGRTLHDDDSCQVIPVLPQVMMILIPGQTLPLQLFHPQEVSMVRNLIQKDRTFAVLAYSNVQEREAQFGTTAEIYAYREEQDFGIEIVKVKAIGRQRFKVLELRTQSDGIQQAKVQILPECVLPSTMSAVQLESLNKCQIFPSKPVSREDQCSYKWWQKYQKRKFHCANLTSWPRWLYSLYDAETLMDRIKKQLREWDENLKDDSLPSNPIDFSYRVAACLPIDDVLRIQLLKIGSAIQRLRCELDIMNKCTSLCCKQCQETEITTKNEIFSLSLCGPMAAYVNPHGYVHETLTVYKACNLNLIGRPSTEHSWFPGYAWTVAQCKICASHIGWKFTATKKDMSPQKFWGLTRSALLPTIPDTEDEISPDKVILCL
Test: log2 fold change of degron read counts, EGFP-low vs EGFP+ sorted cells (limma voom), compound-induced degradation; higher = more compound-induced degradation of the degron-EGFP fusion; degrons are variants of IKZF1/3 zinc finger 2; compound dose not given here
Conditions: Jurkat; 18 h; compound: compound 22 (5-morpholino-thalidomide)
Over roughly 8,300 sequences, “log2 fold change of degron read counts, EGFP-low vs EGFP+ sorted cells (limma voom), compound-induced degradation” has its median near -1.1; the highest 2% begin near 3.2. The list comes from a sample in which the highest values are over-represented; it also holds close analogues and randomly drawn sequences.

Use these answered entries as a reference point.
- Residues: "LHCNQCGFRCTQKGNLLRHIKL [46L_47H_49N_50Q_52G_53F_54R_55C_67L_, Q9UKT9]"
  log2 fold change of degron read counts: -1.7
- Residues: "LWCEICGFCCTQKGNLLRHIKL [46L_47W_49E_50I_52G_53F_54C_55C_67L_, Q9UKT9]"
  log2 fold change of degron read counts: 3.31

# sequence FICNQCGADFTQKGNLLRHIKL [46F_47I_49N_50Q_52G_53A_54D_55F_67L_, Q9UKT9] ; its log2 fold change of degron read counts = -3.02

For this sequence ( LTCNQCGFQCTQKGNLLRHIKL [46L_47T_49N_50Q_52G_53F_54Q_55C_67L_, Q9UKT9] ), measured log2 fold change of degron read counts is -2.53

The measured log2 fold change of degron read counts associated with LACEICGFCCTQKGNLLRHIKL [46L_47A_49E_50I_52G_53F_54C_55C_67L_, Q9UKT9] reads 0.96

Item: FDCDQCGAYFTQKGNLLRHIKL [46F_47D_49D_50Q_52G_53A_54Y_55F_67L_, Q9UKT9] | log2 fold change of degron read counts: -2.78

For LNCEICGFCCTQKGNLLRHIKL [46L_47N_49E_50I_52G_53F_54C_55C_67L_, Q9UKT9] the sequence record lists log2 fold change of degron read counts as -0.862

In plain terms, FCCDICGANFTQKGNLLRHIKL [46F_47C_49D_50I_52G_53A_54N_55F_67L_, Q9UKT9] has a documented log2 fold change of degron read counts of 0.588

Ref: the supplement of paper PMC12645437
